Test: Aqueous solubility in solvents with different pH (excess solute equilibrated at 20° C., UV spectrometry)
Format: physicochemical
Settings: pH 3, aqueous buffer, Buffer pH 3 (citrate/HCl) (pH 3.0), at least 24 hours
Description: Further solubility investigations were performed in function of pH. […] An excess of the solute was equilibrated with the solvent at 20° C. for at least 24 hours. After removing the undissolved compound, the concentration in solution was determined using UV spectrometry. Aqueous solubilities of Form B were measured in solvents with different pH. […] After removing the undissolved compound, the concentration in solution was determined using UV spectrometry. […]
ASSAY_ENDPOINT: solubility thermodynamic (µg/mL)
Hi! Could you send only the number? It should be in µg/mL, unit omitted.

Lookup: What does the record list as solubility thermodynamic for CC(C)CN(C[C@@H](O)[C@H](Cc1ccccc1)NC(=O)O[C@H]1CO[C@H]2OCC[C@H]21)S(=O)(=O)c1ccc(N)cc1 [Form A] ?
Found: 100
